procedure_text: soluble on expression in E. coli; label from the status in PepcDB or PDB records
quantity: soluble on expression in E. coli

Completed entries (count: 4):
sequence_string	quantity	result
MELTAVPATQFSSVQLTDILNACFEAYLVPVTQSVEGFVQRFSAEGMSLVDSRVWLAGDEPAAIAIVARRGSAARLAAFALRPAWRGKGLGRKLMQELLMLLQQQGIETVYLEVIRDNHAAVALYQSLGFTRRYGLCGYLSTELLAPVPGVLQLYPTLSLLRRAIEESNSQLPWLLDPLTFATLPCQVVTLEQRAFAVLTTAGSRPVLSFLWVEPAARRQGLARELLMALAQQFPGIGTSVTVPETFTPLFAAAGYTPLSLQQYEMTMDLADAKSA	soluble on expression in E. coli	not soluble
SAPPLLSLPLCILPPGSGSPRLVCYCERDSGGDGDRDDFNLYVTDAAELWSTCFSPDSLARLKARFGLSGAEDIHSRFRAACQQQAVTVSLQEDRALITLSGDTPALAFDLSKVPSPEAAPRLQALTLSLAEHVCNLERRLAAAEETITSPKKNTQPAGTQFLPELDHQRGSSGPGVRRRCPGESLINPGFKSKKPAAGVDFDET	soluble on expression in E. coli	soluble
MSSQIRGSKQHEDVDPVTIKKIEEAYVMLNGPDGAKCSSLLKKNLTKDVIEKLKTKSTKLGANLYDCIRSGVYCLDALVGVYAPDAEAYTLFAPLFDKIIEDYHGLGPDQKQPPVDLGEGKTKEFPPLDPKGKYIKSTRIRCGRSLNGYQFNPCLTEDNYLEMEEKVKKAFSEFSDEELKGTYYPLDGMSKDTQNQLIADHFLFKEGDRHLQYANACNFWPKGRGIFHNNKKTFLIWVNEEDHLRIISMQEGSDVGAVLERLIKGVRGIEKQVQFSRDDRLGWLTFCPTNLGSTVRASVHIALPKLSAREDFKQICDKLDLQLRGIHGEHSESEGGVYDISNRARLGLSEYEAVKKMYDGVKNLIEMEEKET	soluble on expression in E. coli	not soluble
MTKVQDITRESWILNTFPEWGTWLNEEIEQEVVPADNFAMWWLGNCGIWIKTPGGANVVMDLWSNRGKATKQVKDMVRGHQMANMAGARKLQPNLRAQPMVIDPFMINELDYYLVSHYHSDHIDINTAAAIINNPKLNHVKFVGPYECGEVWKNWGVPKDRIMILKPGDSFEFKDIKITAVESFDRTCLVTLPIQGADAQDGDLAGLAITDDDMARKAVNYIFETPGGTIYHGADSHFSNYFAKHGRDYDIDVVLNNYGENPIGIQDKMTSVDLLRMAENLRAKVVIPVHYDIWSNFMASTDEILELWKMRKERLQYDFHPFIWEVGGKYTYPQDQNRIEYHHPRGFDDCFLEDSNIQFKALL	soluble on expression in E. coli	not soluble

The recorded soluble on expression in E. coli for entry MNIIDFNKPVKRSFRGNTAPAPPLEKVLTVILKTDVPVLMGICSDGLRSNSAILGGEFQAEYFSGSVLSGGGNVLVELSSELAFLETRFTLITQLGELINVECKGVLLMDEEGQQELQSGVWPISEGHYQCTCTPRFQVSLGPNDWLEKSAFIGKIDYIQRNETLISFYRMKL equals not soluble

Input MGIVSAASLIKVINEKQLKMAQDQNPLTALPGNRAIGGFIADSCSDGDETRFFCYCDFDNFKPFNDKYGFNAGDHAITLFSALMRRYFFAGDCFLGHIGGDDFFIGVRDWSVEELMEILERLLSDFHDDVAGLYSDEDRAAGCMKGQDRNGLEHHHHHH . Output soluble on expression in E. coli: soluble

sequence MNIDSDIFKIQSNNVLPSRGKILISEPFLRDATFGRSVVLLIDHTEEGSMGLIINKQLPIFVNDIIKEFKYIENIPLYKGGPIATDTLFYLHTLADIPGAIPISKGLYLNGDFDEIKKYILQGNKVDRYIRFFLGYSGWESEQLSTELKENTWLVSKEENAYLMNGDTKDMWKQALEKLGSKYETWSRFPQVPTFNLEHHHHHH , soluble on expression in E. coli observed: soluble
